Items are presented alongside their recorded MFI at 0.001 µg/ml.
- Target: T1, human GCC, full length with myc tag (293-GCC#2 cells) (human, UniProt P25092 24-1073)
- T1 construct: not shown: myc tag
- T1 sequence (P25092 24-1073): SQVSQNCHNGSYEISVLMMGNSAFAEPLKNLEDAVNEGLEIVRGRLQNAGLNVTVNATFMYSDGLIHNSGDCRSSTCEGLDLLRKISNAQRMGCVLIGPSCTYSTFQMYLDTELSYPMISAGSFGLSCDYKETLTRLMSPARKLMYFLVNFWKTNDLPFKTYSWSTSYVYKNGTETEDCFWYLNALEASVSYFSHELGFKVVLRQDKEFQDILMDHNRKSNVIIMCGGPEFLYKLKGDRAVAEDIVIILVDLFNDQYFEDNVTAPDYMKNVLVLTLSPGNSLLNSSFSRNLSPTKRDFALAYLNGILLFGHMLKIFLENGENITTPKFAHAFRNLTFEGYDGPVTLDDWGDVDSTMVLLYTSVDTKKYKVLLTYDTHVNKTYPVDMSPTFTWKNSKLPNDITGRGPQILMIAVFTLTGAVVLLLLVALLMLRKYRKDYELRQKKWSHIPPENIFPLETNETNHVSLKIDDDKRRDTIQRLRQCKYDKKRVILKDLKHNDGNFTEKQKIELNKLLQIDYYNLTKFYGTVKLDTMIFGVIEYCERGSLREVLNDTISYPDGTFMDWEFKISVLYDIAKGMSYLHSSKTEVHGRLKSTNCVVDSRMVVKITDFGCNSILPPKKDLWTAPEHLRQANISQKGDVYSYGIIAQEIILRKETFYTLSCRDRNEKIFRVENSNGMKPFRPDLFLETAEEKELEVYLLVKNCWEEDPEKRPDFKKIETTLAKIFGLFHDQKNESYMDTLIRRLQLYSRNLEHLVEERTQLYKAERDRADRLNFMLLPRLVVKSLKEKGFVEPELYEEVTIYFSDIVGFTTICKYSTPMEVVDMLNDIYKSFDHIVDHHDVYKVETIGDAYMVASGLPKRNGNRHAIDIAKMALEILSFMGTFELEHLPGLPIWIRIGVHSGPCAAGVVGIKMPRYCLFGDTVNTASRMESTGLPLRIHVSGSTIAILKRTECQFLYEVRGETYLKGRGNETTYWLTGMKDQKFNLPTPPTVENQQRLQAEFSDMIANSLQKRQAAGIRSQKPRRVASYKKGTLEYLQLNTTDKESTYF
- Assay notes: indirect immunofluorescence flow cytometry, 293 GCC #2 cells;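 note: cells exposed to the test antibodies for 1 h on ice before flow cytometric readout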
Kindly provide the number alone.

The cases that follow already have their MFI at 0.001 µg/ml on record.
mAb 5F9 (antibody, V domains shown, Human; hybridoma product is IgG2, kappa; also called 46.5F9.8.2; Prep A 5F9) VH: QVQLQQWGAGLLKPSETLSLTCAVFGGSFSGYYWSWIRQPPGKGLEWIGEINHRGNTNDNPSLKSRVTISVDTSKNQFALKLSSVTAADTAVYYCARERGYTYGNFDHWGQGTLVTVSS VL: EIVMTQSPATLSVSPGERATLSCRASQSVSRNLAWYQQKPGQAPRLLIYGASTRATGIPARFSGSGSGTEFTLTIGSLQSEDFAVYYCQQYKTWPRTFGQGTNVEIK : 500
5F9-vc-MMAE (antibody, V domains shown, mc-vc-MMAE drug-linker on reduced interchain cysteines of the antibody; positions not given, Antibody drug conjugate of 5F9) VH: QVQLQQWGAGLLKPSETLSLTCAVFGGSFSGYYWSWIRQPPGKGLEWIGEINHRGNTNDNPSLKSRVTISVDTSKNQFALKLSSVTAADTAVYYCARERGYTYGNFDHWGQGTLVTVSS VL: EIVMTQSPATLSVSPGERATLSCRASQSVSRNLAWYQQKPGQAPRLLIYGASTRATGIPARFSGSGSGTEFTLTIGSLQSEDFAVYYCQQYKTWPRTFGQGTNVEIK : 445
5F9-mc-MMAF (antibody, V domains shown, mc-MMAF drug-linker on reduced interchain cysteines of the antibody; positions not given, Antibody drug conjugate of 5F9; average loading about four) VH: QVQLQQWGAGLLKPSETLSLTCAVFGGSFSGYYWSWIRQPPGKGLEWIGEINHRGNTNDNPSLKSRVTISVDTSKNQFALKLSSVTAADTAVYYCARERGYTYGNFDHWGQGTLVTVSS VL: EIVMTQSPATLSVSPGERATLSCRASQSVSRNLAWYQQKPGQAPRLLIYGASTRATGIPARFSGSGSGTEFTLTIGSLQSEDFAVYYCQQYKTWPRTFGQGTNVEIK : 483

Lookup: Dear colleague, I am looking for the recorded MFI at 0.001 µg/ml of the following binder: 5F9-vc-MMAF (antibody, V domains shown, mc-vc-MMAF drug-linker on reduced interchain cysteines of the antibody; positions not given, Antibody drug conjugate of 5F9; average loading about four) VH: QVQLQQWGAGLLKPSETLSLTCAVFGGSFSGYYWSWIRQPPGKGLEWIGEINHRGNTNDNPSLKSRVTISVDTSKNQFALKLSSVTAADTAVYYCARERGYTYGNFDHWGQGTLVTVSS VL: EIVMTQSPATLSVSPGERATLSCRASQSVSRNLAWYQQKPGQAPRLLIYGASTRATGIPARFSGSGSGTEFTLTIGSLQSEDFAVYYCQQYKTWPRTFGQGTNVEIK
Found: 440
